- assay system: T1, human IFN receptor (human, UniProt P17181)
- T1 sequence 1: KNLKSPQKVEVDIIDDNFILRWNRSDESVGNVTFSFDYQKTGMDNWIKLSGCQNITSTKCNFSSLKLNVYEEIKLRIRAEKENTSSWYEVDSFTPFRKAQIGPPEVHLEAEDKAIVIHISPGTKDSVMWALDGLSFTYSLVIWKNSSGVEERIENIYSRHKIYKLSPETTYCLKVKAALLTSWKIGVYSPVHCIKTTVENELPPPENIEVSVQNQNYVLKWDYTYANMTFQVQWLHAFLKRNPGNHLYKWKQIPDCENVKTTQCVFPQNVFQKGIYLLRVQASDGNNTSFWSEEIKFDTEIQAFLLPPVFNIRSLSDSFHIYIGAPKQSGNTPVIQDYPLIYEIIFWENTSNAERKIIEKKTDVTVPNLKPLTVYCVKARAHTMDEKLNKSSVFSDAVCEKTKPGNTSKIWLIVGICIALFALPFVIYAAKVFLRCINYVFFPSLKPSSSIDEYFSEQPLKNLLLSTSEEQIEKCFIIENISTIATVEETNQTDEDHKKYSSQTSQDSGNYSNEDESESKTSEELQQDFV
- T1 sequence 2: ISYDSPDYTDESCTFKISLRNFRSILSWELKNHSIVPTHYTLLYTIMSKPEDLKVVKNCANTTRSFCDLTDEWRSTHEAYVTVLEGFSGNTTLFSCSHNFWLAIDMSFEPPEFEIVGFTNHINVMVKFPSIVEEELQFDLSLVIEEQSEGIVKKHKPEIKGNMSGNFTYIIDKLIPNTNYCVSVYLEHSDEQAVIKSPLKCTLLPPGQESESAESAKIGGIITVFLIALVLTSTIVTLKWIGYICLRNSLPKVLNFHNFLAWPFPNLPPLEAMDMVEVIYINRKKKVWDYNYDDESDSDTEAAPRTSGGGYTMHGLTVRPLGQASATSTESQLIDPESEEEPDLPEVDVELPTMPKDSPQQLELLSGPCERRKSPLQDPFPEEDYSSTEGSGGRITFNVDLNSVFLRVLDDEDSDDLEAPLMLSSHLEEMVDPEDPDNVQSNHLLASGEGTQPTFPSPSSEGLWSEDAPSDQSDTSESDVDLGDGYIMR
- method summary: cell-based or functional assay
measure: IC50 pg/ml (anti-proliferation, Daudi cells) (pg/mL)
Return type: number; implicit unit pg/mL.

# binder, assay value
data = [
    ("Human Interferon-β 1a-MOD-9010 (ligand) MSYNLLGFLQRSSNFQCQKLLWQLNGRLEYCLKDRMNFDIPEEIKQLQQFQKEDAALTIYEMLQNIFAIFRQDSSSTGWNETIVENLLANVYHQINHLKTVLEEKLEKEDFTRGKLMSSLHLKRYYGRILHYLKAKEYSHCAWTIVRVEILRNFYFINRLTGYLRN", 251),
    ("MOD-9011 (IFNβ-ctp) (ligand) MSYNLLGFLQRSSNFQCQKLLWQLNGRLEYCLKDRMNFDIPEEIKQLQQFQKEDAALTIYEMLQNIFAIFRQDSSSTGWNETIVENLLANVYHQINHLKTVLEEKLEKEDFTRGKLMSSLHLKRYYGRILHYLKAKEYSHCAWTIVRVEILRNFYFINRLTGYLRNSSSSKAPPPSLPSPSRLPGPSDTPILPQ", 264),
    ("MOD-9016 (ctp-IFNβ-ctp) (ligand) SSSSKAPPPSLPSPSRLPGPSDTPILPQMSYNLLGFLQRSSNFQCQKLLWQLNGRLEYCLKDRMNFDIPEEIKQLQQFQKEDAALTIYEMLQNIFAIFRQDSSSTGWNETIVENLLANVYHQINHLKTVLEEKLEKEDFTRGKLMSSLHLKRYYGRILHYLKAKEYSHCAWTIVRVEILRNFYFINRLTGYLRNSSSSKAPPPSLPSPSRLPGPSDTPILPQ", 323),
]

(Q) Any idea what IC50 pg/ml (anti-proliferation, Daudi cells) was measured for Intl. Standard (IFN-β reference standard calibrated in International Units, National Institute of Allergy and Infectious Diseases (NIH)) (ligand) MSYNLLGFLQRSSNFQCQKLLWQLNGRLEYCLKDRMNFDIPEEIKQLQQFQKEDAALTIYEMLQNIFAIFRQDSSSTGWNETIVENLLANVYHQINHLKTVLEEKLEKEDFTRGKLMSSLHLKRYYGRILHYLKAKEYSHCAWTIVRVEILRNFYFINRLTGYLRN ?
(A) 318
